assay: PK parameter test in SD rats; assay type: in vivo, Sprague-Dawley rats; details: Sprague-Dawley, rat; male SD rats, intravenous injection 3 mg/kg, plasma; read-out: AUC(iv)
Measurement label: AUC (ng·h/mL)

> print(dat)
                                   molecule  measured.result
1  [2H]C([2H])([2H])Oc1ccc([C@@H](CS(C)(=O)=O)N2C(=O)c3c(F)ccc(NC(C)=O)c3C2=O)cc1OCC             1260
2  [2H]C([2H])([2H])Oc1ccc([C@@H](CS(C)(=O)=O)N2C(=O)c3cc(F)cc(NC(C)=O)c3C2=O)cc1OCC             1010
3  CCOc1cc([C@@H](CS(C)(=O)=O)N2C(=O)c3cccc(NC(C)=O)c3C2=O)ccc1OC [Reference compound 2, reference compound]             1050
